Molecular target: T1, MipZ K13A (Caulobacter crescentus, UniProt Q9A6C9 1-278, K13A)
T1 sequence: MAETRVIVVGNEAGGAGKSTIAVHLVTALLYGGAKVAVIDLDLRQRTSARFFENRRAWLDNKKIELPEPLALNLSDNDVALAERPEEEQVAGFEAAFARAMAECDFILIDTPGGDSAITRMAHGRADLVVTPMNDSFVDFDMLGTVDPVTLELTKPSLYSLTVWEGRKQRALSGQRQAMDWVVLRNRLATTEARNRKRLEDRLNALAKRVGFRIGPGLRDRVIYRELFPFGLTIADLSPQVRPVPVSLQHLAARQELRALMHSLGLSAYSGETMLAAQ
Assay: MST; low-affinity group, KD >> 10 uM; EMSA: 10 mM HEPES/NaOH pH 7.2, 150 mM NaCl, 10 mM MgCl2, 0.05% Tween 20, 0.46 mM ATPgS, room temp; BLI: 50 mM HEPES/NaOH pH 7.2, 50 mM NaCl, 5 mM MgCl2, 0.1 mM
Conditions: protein: recombinant; tags: C-terminal His6 (pET21a); label: Cy3 (5') on strand 1; blunt
Readout Kind: Kd

binder="rand-Cy3/rand-rev 26 bp (dsDNA) DNA 1: GAGGCAGACTAGATCTTCTAGTTCGG DNA 2: CCGAACTAGAAGATCTAGTCTGCCTC" readout_kind=Kd result="> 10 µM"
